System: MST2;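 further: KINOMEscan kinase panel screen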
Construct: gene STK3
Settings: concentration: 1 μM, replicates: in singlicate; n = 1
# %Inh listing for each entry below
# unit: % | format: bare number

CC(=O)Nc1ccc(COc2ccc(Nc3ccnc4cc(-c5ccccn5)ccc34)cc2)cc1.Cl [GW440148]
30
COc1cc(Nc2nccc(N3CCC(NC(=O)c4cccc(NC(C)=O)c4)C3)n2)cc(OC)c1OC (stereo not shown) [GSK1379754]
7
C[C@@H](Oc1cc(-n2cnc3ccc(NC(=O)NC(C)(C)C)cc32)sc1C(N)=O)c1ccccc1Cl [GSK346294]
0
COc1ccc(CNC(=O)NC2CCN(c3ccnc(Nc4ccc(OC)cc4)n3)C2)cc1 (stereo not shown) [GSK1379727]
0
Cl.Nc1ncnc2occ(-c3ccc(NC(=O)Nc4cc(C(F)(F)F)ccc4F)cc3)c12 [SB-707548]
26
N#Cc1ccc(-c2cc(-c3c[nH]nc3-c3ccccn3)ccn2)cc1 [GW693028]
0

Input: Kindly indicate its recorded %Inh. Item: Fc1ccc(-c2ncn(CCCN3CCOCC3)c2-c2ccccn2)cc1 [SB-211742]
Output: 32

Input: Kindly indicate its recorded %Inh. Item: Cc1cccc(-c2nc(Nc3ccc4ncsc4c3)c3ccccc3n2)n1 [GW867588]
Output: 0

Input: Kindly indicate its recorded %Inh. Item: CC(C)(CN)c1nc(-c2ccc(Cl)c(O)c2)c(-c2ccncc2)[nH]1.O=C(O)C(F)(F)F [SB-477794]
Output: 0

Input: Kindly indicate its recorded %Inh. Item: COc1ccc(Nc2ncc(C#N)c(Nc3ccccc3C(N)=O)n2)cc1N1CCN(C)CC1.Cl [GSK1558669]
Output: 51

All values here come from paper PMC5540273.
